Sourced from ChEMBL document CHEMBL1131094

# Ki measurements, system: Cannabinoid receptor 2 (Mus musculus, UniProt P47936)
# Sequence (P47936 whole entry): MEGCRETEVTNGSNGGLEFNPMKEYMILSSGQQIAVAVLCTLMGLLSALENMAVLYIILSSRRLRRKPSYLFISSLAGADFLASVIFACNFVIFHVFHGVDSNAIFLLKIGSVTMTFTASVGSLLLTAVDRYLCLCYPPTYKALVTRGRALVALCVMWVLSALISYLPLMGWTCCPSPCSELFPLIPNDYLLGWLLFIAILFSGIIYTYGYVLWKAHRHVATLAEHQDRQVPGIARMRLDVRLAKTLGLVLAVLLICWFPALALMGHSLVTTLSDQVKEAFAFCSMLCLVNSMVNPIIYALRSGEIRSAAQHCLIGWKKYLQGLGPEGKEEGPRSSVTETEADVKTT
Numeric answer plus unit only.

Guide cases for Ki, answers given:
- structure.smiles.string: "CCCCCCC(C)(C)c1cc(O)c2c(c1)OC(C)(C)[C@@H]1CC[C@@H](CO)C[C@@H]21"
  Ki: "2.3 nM"
- structure.smiles.string: "CCCCCCC(C)(C)c1cc(O)c2c(c1)O[C@@](C)(CCCO)[C@@H]1CC[C@@H](CO)C[C@@H]21"
  Ki: "3.4 nM"

Hello, I would appreciate it if you could give Ki for each entry below.
1. CCCCCCC(C)(C)c1cc(O)c2c(c1)O[C@@](C)(CC)[C@@H]1CC[C@@H](CO)C[C@@H]21
2. CCCCCCC(C)(C)c1cc(O)c2c(c1)O[C@@](C)(CCI)[C@@H]1CC[C@@H](CO)C[C@@H]21
3. CCCCCCC(C)(C)c1cc(O)c2c(c1)O[C@@](C)(CCCI)[C@@H]1CC[C@@H](CO)C[C@@H]21
4. CCCCCCC(C)(C)c1cc(O)c2c(c1)O[C@@](C)(CO)[C@@H]1CC[C@@H](CO)C[C@@H]21
5. CCCCCCC(C)(C)c1cc(O)c2c(c1)O[C@@](C)(CCO)[C@@H]1CC[C@@H](CO)C[C@@H]21
6. CCCCCCC(C)(C)c1cc(O)c2c(c1)O[C@@](C)(CCC)[C@@H]1CC[C@@H](CO)C[C@@H]21

OUTPUT:
["21.5 nM", "9.7 nM", "4.3 nM", "1.4 nM", "2.3 nM", "38.9 nM"]
